molecular target: human cathepsin K (UniProt P43236); assay: Cathepsin K Assay (hrbCat K); format: biochemical; details: human cathepsin K 0.4 nM, Z-Leu-Arg-AMC 8 μM, pH 5.5, 15 min preincubation; read-out: hrbCat K IP
Give measured IC50 for each item. Keep answers brief.
Numbers only, in nM.

The cases that follow already have their IC50 on record.
1. CC(C)[C@@H](C#N)NC(=O)[C@@H]1CC(F)(F)CC[C@H]1c1oc(C(F)(F)C(F)(F)F)nc1-c1ccc(C(=O)N2CCOCC2)cc1 :: 1.03
2. N#Cc1ccccc1-c1nc(-c2ccc(N3CCS(=O)(=O)CC3)cc2)c([C@@H]2CCCC[C@H]2C(=O)NC2(C#N)CC2)o1 :: 2.4
3. N#CC1(NC(=O)[C@@H]2CCCC[C@H]2c2oc(-c3ccccc3Cl)nc2-c2ccc(N3CCS(=O)(=O)CC3)cc2)CC1 :: 2.06
4. Cc1nc(-c2ccc(N3CCS(=O)(=O)CC3)cc2)c([C@@H]2CCC(F)(F)C[C@H]2C(=O)NCC#N)o1 :: 0.29
5. CC(C)(C)c1nc(-c2ccc(N3CCS(=O)(=O)CC3)cc2)c([C@@H]2CC[C@H](F)C[C@H]2C(=O)NC2(C#N)CC2)o1 :: 1.5

Could you tell me IC50 for each of these compounds? They are listed below.
1. N#CC1(NC(=O)[C@@H]2CCCC[C@H]2c2oc(C(F)(F)c3ccccc3)nc2-c2ccc(N3CCS(=O)(=O)CC3)cc2)CC1
2. N#CC1(NC(=O)[C@@H]2CCCC[C@H]2c2oc(-c3cncc(F)c3)nc2-c2ccc(N3CCS(=O)(=O)CC3)cc2)CC1

Result string:
1: 1.25; 2: 1.99
